Measured Target: HLA-B*18:01
Test Protocol: IEDB peptide-MHC binding, purified MHC/competitive/fluorescence; filed as Kd, often an IC50 or EC50 that approximates it; bounds were set here for any values at or beyond the usual limits of such assays
Test Parameters: source organism: Zaire ebolavirus
Test Readout: Kd

Query :: Form: Entry = `IFLKPDETF` | System = HLA-B*18:01 | Kd = ____
Result :: ≥ 20 µM

---

Measured Target: HLA-B*57:01
Test Protocol: IEDB peptide-MHC binding, purified MHC/direct/fluorescence; filed as Kd, often an IC50 or EC50 that approximates it; bounds were set here for any values at or beyond the usual limits of such assays
Test Parameters: source organism: Mycobacterium tuberculosis str. Haarlem
Test Readout: Kd

Query :: What value of Kd has been recorded for this entry: `EILWDVIPF`
Result :: ≥ 20 µM

---

Measured Target: HLA-B*15:01
Test Protocol: IEDB peptide-MHC binding, purified MHC/direct/fluorescence; filed as Kd, often an IC50 or EC50 that approximates it; bounds were set here for any values at or beyond the usual limits of such assays
Test Parameters: source organism: Ebola virus - Gabon (1994-1997)
Test Readout: pKd
Please keep in mind that pKd is minus log10 of the molar concentration; only the number is needed.

Query :: What value of pKd has been recorded for this entry: `KVYWAGIEF`
Result :: 6.88

---

Measured Target: HLA-B*15:17
Test Protocol: IEDB peptide-MHC binding, purified MHC/competitive/fluorescence; filed as Kd, often an IC50 or EC50 that approximates it; bounds were set here for any values at or beyond the usual limits of such assays
Test Parameters: source organism: Hantavirus HPR/02-73
pKd: −log10 of the molar value.
Test Readout: pKd

Query :: What value of pKd has been recorded for this entry: `WKAIGAYIL`
Result :: ≤ 4.70

---

Measured Target: HLA-B*35:01
Test Protocol: IEDB peptide-MHC binding, purified MHC/competitive/fluorescence; filed as Kd, often an IC50 or EC50 that approximates it; bounds were set here for any values at or beyond the usual limits of such assays
Test Parameters: source organism: Zaire ebolavirus
Test Readout: Kd (µM)
Please reply with the bare figure in µM and do not write the unit itself.

Query :: What value of Kd has been recorded for this entry: `KVYWAGIEF`
Result :: 0.114

---

Measured Target: HLA-B*45:06
Test Protocol: IEDB peptide-MHC binding, purified MHC/competitive/fluorescence; filed as Kd, often an IC50 or EC50 that approximates it; bounds were set here for any values at or beyond the usual limits of such assays
Test Parameters: source organism: Mycobacterium tuberculosis C
pKd: −log10 of the molar value.
pKd by entry:

# Chain, pKd
records = [
    ("RIRAANLPI", "≤ 5.30"),
]

Kindly consider the entry below.
Query :: Form: Entry = `FVYSVSFHK` | System = HLA-B*45:06 | pKd = ____
Result :: ≤ 5.30

---

Measured Target: HLA-A*02:06
Test Protocol: IEDB peptide-MHC binding, purified MHC/competitive/fluorescence; filed as Kd, often an IC50 or EC50 that approximates it; bounds were set here for any values at or beyond the usual limits of such assays
Test Parameters: source organism: Vaccinia virus WR
Test Readout: Kd

Query :: Form: Entry = `YPAVINSNI` | System = HLA-A*02:06 | Kd = ____
Result :: 4.11 µM

---

Measured Target: HLA-B*48:01
Test Protocol: IEDB peptide-MHC binding, purified MHC/direct/fluorescence; filed as Kd, often an IC50 or EC50 that approximates it; bounds were set here for any values at or beyond the usual limits of such assays
Test Parameters: source organism: Bacillus thuringiensis
Test Readout: Kd (nM)
Please reply with the bare figure in nM and do not write the unit itself.

Query :: What value of Kd has been recorded for this entry: `KQIAEHATI`
Result :: 351

---

Measured Target: HLA-B*15:42
Test Protocol: IEDB peptide-MHC binding, purified MHC/competitive/fluorescence; filed as Kd, often an IC50 or EC50 that approximates it; bounds were set here for any values at or beyond the usual limits of such assays
Test Parameters: source organism: Salmonella enterica subsp. enterica serovar Typhi
Test Readout: Kd

# Chain, Kd
data = [
    ("MPFIATPPV", "≥ 5 µM"),
]

Kindly consider the entry below.
Query :: What value of Kd has been recorded for this entry: `FTFKVNSVK`
Result :: ≥ 5 µM

---

Measured Target: HLA-A*02:01
Test Protocol: IEDB peptide-MHC binding, purified MHC/direct/fluorescence; filed as Kd, often an IC50 or EC50 that approximates it; bounds were set here for any values at or beyond the usual limits of such assays
Test Parameters: source organism: Vibrio vulnificus
pKd: −log10 of the molar value.
Test Readout: pKd

Query :: What value of pKd has been recorded for this entry: `DFPIFNQRY`
Result :: ≤ 4.70

---

Measured Target: HLA-A*68:01
Test Protocol: IEDB peptide-MHC binding, purified MHC/competitive/radioactivity; filed as Kd, often an IC50 or EC50 that approximates it; bounds were set here for any values at or beyond the usual limits of such assays
Test Parameters: source organism: Mammarenavirus guanaritoense
pKd: −log10 of the molar value.
Test Readout: pKd

Query :: What value of pKd has been recorded for this entry: `NYVHCFRKPH`
Result :: ≤ 4.15

---

Measured Target: HLA-B*08:01
Test Protocol: IEDB peptide-MHC binding, purified MHC/competitive/fluorescence; filed as Kd, often an IC50 or EC50 that approximates it; bounds were set here for any values at or beyond the usual limits of such assays
Test Parameters: source organism: Salmonella enterica subsp. enterica serovar Typhi
Test Readout: pKd
Please keep in mind that pKd is minus log10 of the molar concentration; only the number is needed.

Query :: What value of pKd has been recorded for this entry: `MPFIATPPV`
Result :: 5.84

---

Measured Target: HLA-A*68:01
Test Protocol: IEDB peptide-MHC binding, purified MHC/competitive/radioactivity; filed as Kd, often an IC50 or EC50 that approximates it; bounds were set here for any values at or beyond the usual limits of such assays
Test Parameters: source organism: Dengue virus 4 Philippines/H241/1956
pKd by entry:
Please keep in mind that pKd is minus log10 of the molar concentration; only the number is needed.

Query :: Form: Entry = `EVHWNYKER` | System = HLA-A*68:01 | pKd = ____
Result :: 7.82

Query :: Form: Entry = `VTFKVPHAKR` | System = HLA-A*68:01 | pKd = ____
Result :: 7.67

---

Measured Target: HLA-A*03:01
Test Protocol: IEDB peptide-MHC binding, purified MHC/competitive/fluorescence; filed as Kd, often an IC50 or EC50 that approximates it; bounds were set here for any values at or beyond the usual limits of such assays
Test Parameters: source organism: Vibrio atlanticus LGP32
Test Readout: Kd (nM)
Please reply with the bare figure in nM and do not write the unit itself.

Query :: What value of Kd has been recorded for this entry: `HISWQGPGK`
Result :: 218

---

Measured Target: HLA-A*68:02
Test Protocol: IEDB peptide-MHC binding, purified MHC/competitive/fluorescence; filed as Kd, often an IC50 or EC50 that approximates it; bounds were set here for any values at or beyond the usual limits of such assays
Test Parameters: source organism: Yersinia pestis Nepal516
Test Readout: Kd (nM)
Please reply with the bare figure in nM and do not write the unit itself.

Query :: What value of Kd has been recorded for this entry: `STYWLMAGL`
Result :: 0.5

---

Measured Target: HLA-B*46:01
Test Protocol: IEDB peptide-MHC binding, purified MHC/competitive/fluorescence; filed as Kd, often an IC50 or EC50 that approximates it; bounds were set here for any values at or beyond the usual limits of such assays
Test Parameters: source organism: Orthohantavirus delgaditoense
Test Readout: Kd

Query :: What value of Kd has been recorded for this entry: `DWMERIEDF`
Result :: ≥ 20 µM

---

Measured Target: HLA-A*03:01
Test Protocol: IEDB peptide-MHC binding, purified MHC/competitive/fluorescence; filed as Kd, often an IC50 or EC50 that approximates it; bounds were set here for any values at or beyond the usual limits of such assays
Test Parameters: source organism: Vibrio cholerae V52
Test Readout: pKd
Please keep in mind that pKd is minus log10 of the molar concentration; only the number is needed.

Query :: Form: Entry = `IGYRLGMGK` | System = HLA-A*03:01 | pKd = ____
Result :: 7.87

---

Measured Target: HLA-B*15:17
Test Protocol: IEDB peptide-MHC binding, purified MHC/competitive/fluorescence; filed as Kd, often an IC50 or EC50 that approximates it; bounds were set here for any values at or beyond the usual limits of such assays
Test Parameters: source organism: Human immunodeficiency virus 1
pKd by entry:
Please keep in mind that pKd is minus log10 of the molar concentration; only the number is needed.

// worked examples, pKd included
# Chain, Measured Target, pKd
data = [
    ("LNTVATLY", "HLA-B*15:17", 5.56),
    ("KSLFNTIATLY", "HLA-B*15:17", 8.66),
]

Query :: What value of pKd has been recorded for this entry: `RSLFNTIATLY`
Result :: 8.52
